ASSAY COMMENT: Potency in clonogenic assay defined by Hypersensitivity factor calculated for AA8 cells versus EMT6 cells [IC50(AA8)/IC50 (EMT6)]
Type: functional
OUTCOME MEASURE: Hypersensitivity factor
No unit in the answer, only the number.

Qu. # query: Hypersensitivity factor of entry O=C(NCC(O)CO)c1cc([N+](=O)[O-])cc([N+](=O)[O-])c1N(CCCl)CCCl (stereo not given)
Ans. 1.8

Qu. Try the molecule CN(C)CCNC(=O)c1c([N+](=O)[O-])ccc(N(CCCl)CCCl)c1[N+](=O)[O-]
Ans. 3

Qu. // query: O=C(NCC(O)CO)c1ccc(N(CCCl)CCCl)c([N+](=O)[O-])c1[N+](=O)[O-] (stereo not given)
Ans. 3

Qu. Same again, this time with O=C(NCC(O)CO)c1cc(N(CCCl)CCCl)c([N+](=O)[O-])cc1[N+](=O)[O-] (stereo not given)
Ans. 2.3

Qu. Same question for CN(C)CCNC(=O)c1ccc(N(CCCl)CCCl)c([N+](=O)[O-])c1[N+](=O)[O-] please.
Ans. 1.2

----------
Tested on: UV4
ASSAY COMMENT: Compound was tested for the concentration required to reduce cell survival under hypoxic conditions, using the cell line UV4 in the clonogenic assay.
Assay type: functional, Cricetulus griseus
Measured C10, listed per entry.
Entry rule: numbers only, all in µM.

Some solved entries appear below for comparison.
[[record]]
molecule = "CN(C)CCNC(=O)c1cc([N+](=O)[O-])c(N(CCCl)CCCl)cc1[N+](=O)[O-]"
recorded_result = 12

[[record]]
molecule = "CN(C)CCNC(=O)c1ccc(N(CCCl)CCCl)c([N+](=O)[O-])c1[N+](=O)[O-]"
recorded_result = 160

[[record]]
molecule = "CN(C)CCNC(=O)c1cc(N(CCCl)CCCl)c([N+](=O)[O-])cc1[N+](=O)[O-]"
recorded_result = 400

[[record]]
molecule = "CN(C)CCNC(=O)c1cc([N+](=O)[O-])c(N(CCCl)CCCl)c([N+](=O)[O-])c1"
recorded_result = 250

[[record]]
molecule = "NC(=O)c1cc(N(CCCl)CCCl)c([N+](=O)[O-])cc1[N+](=O)[O-]"
recorded_result = 3400


Qu. Bench note: what C10 did CN(C)CCNC(=O)c1cc([N+](=O)[O-])cc([N+](=O)[O-])c1N(CCCl)CCCl show?
Ans. 1100

Qu. For CN(C)CCNC(=O)c1cc([N+](=O)[O-])c([N+](=O)[O-])cc1N(CCCl)CCCl then?
Ans. 18

Qu. CN(C)CCNC(=O)c1c([N+](=O)[O-])ccc(N(CCCl)CCCl)c1[N+](=O)[O-] , same question.
Ans. 2200

Qu. Next record, please: O=C(NCC(O)CO)c1cc(N(CCCl)CCCl)c([N+](=O)[O-])cc1[N+](=O)[O-] (centres undefined)
Ans. 3600

----------
Listed here are molecules together with their documented Hypersensitivity factor.
ASSAY COMMENT: Potency in clonogenic assay defined by Hypersensitivity factor calculated for AA8 cells versus EMT6 cells [IC50(AA8)/IC50 (EMT6)]
Assay type: functional

Qu. Which Hypersensitivity factor is listed for O=C(NCC(O)CO)c1cc([N+](=O)[O-])c(N(CCCl)CCCl)cc1[N+](=O)[O-] (stereo not given) ?
Ans. 3.5

Qu. Param item: NC(=O)c1ccc(N(CCCl)CCCl)c([N+](=O)[O-])c1[N+](=O)[O-]
Ans. 3.1

Qu. Follow-up item: NC(=O)c1cc([N+](=O)[O-])c(N(CCCl)CCCl)cc1[N+](=O)[O-]
Ans. 1.9

Qu. For CN(C)CCNC(=O)c1cc([N+](=O)[O-])c(N(CCCl)CCCl)c([N+](=O)[O-])c1 then?
Ans. 2.1

Qu. Further, for O=C(NCC(O)CO)c1cc([N+](=O)[O-])c([N+](=O)[O-])cc1N(CCCl)CCCl (stereo not given) ?
Ans. 1.9

Qu. Same lookup for NC(=O)c1cc([N+](=O)[O-])c([N+](=O)[O-])cc1N(CCCl)CCCl , please.
Ans. 0.43
